test system: CCRF-CEM; test: NCI tumour cell line growth inhibition, 48 h
Calls of active or inactive are those of the source. No stated cut-off is given here; in the data, active = GI50 up to about 1.1 µM and inactive = higher.
Please respond with reported GI50 for every item in the list.

What reported GI50 corresponds to Cc1cc(=O)oc2cc3oc(N(C)c4ccccc4)nc(=O)c3cc12 on CCRF-CEM?
> 100 µM (inactive)

What reported GI50 corresponds to COC(=O)[C@H](Cc1c[nH]c2ccccc12)NC(=O)c1ccc(CNC(=O)/C=C/c2cccc(Oc3ccccc3)c2)cc1 on CCRF-CEM?
56.1 µM (inactive)

What reported GI50 corresponds to COc1ccc(/C=C2\N=C(c3ccccc3)OC2=O)cc1OC(C)=O on CCRF-CEM?
27.7 µM (inactive)

What reported GI50 corresponds to CSC1(SC)CCCCCCCCCCC1 on CCRF-CEM?
22.9 µM (inactive)

What reported GI50 corresponds to COc1cc(O)c2c(=O)c(O)c(-c3ccc(O)c(O)c3)oc2c1 on CCRF-CEM?
3.61 µM (inactive)

What reported GI50 corresponds to COc1ccc2c(c1)/C(=C(\C(Cl)=C(\Cl)N1CCCCC1)[N+](=O)[O-])N2 on CCRF-CEM?
40.7 µM (inactive)

What reported GI50 corresponds to C[C@@H](Oc1ccc(Oc2cnc3ccc(Cl)cc3n2)cc1)C(=O)O [R(+)XK469] on CCRF-CEM?
97.3 µM (inactive)

What reported GI50 corresponds to COC(=O)c1ccccc1C1CN=NC12Cc1cccc(C)c1C2=O (stereo unspecified) on CCRF-CEM?
52.7 µM (inactive)

What reported GI50 corresponds to COc1cc(OC)c2ssc3c(OC)cc(OC)c4ssc1c2-c43 on CCRF-CEM?
> 100 µM (inactive)

What reported GI50 corresponds to CCC1([N+](=O)[O-])CC2C=CC1C2 (stereo unspecified) on CCRF-CEM?
> 100 µM (inactive)

What reported GI50 corresponds to C=CCC1(Sc2ccccn2)Sc2ccc3ccccc3c2-c2c(ccc3ccccc23)S1 on CCRF-CEM?
> 100 µM (inactive)
